These data points were gathered from the supplement of paper PMC8612539.

- System: Histophilus somni
- ASSAY: minimum inhibitory concentration (MIC)
- ASSAY_SETUP: isolate (source animal id): 264
# Lookup of reported minimum inhibitory concentration keyed by entry
ASSAY_METRIC: minimum inhibitory concentration (µg/mL)

CN[C@@H]1[C@H](O)[C@H](NC)[C@H]2O[C@@]3(O)C(=O)C[C@@H](C)O[C@H]3O[C@@H]2[C@H]1O [Spectinomycin]: 32
NC[C@@H]1O[C@H](O[C@H]2[C@@H](O)[C@H](O[C@@H]3[C@@H](O)[C@H](N)C[C@H](N)[C@H]3O[C@H]3O[C@H](CN)[C@@H](O)[C@H](O)[C@H]3N)O[C@@H]2CO)[C@H](N)[C@@H](O)[C@@H]1O [Neomycin]: 8
CN(C)[C@@H]1C(O)=C(C(N)=O)C(=O)[C@@]2(O)C(O)=C3C(=O)c4c(O)cccc4[C@@](C)(O)[C@H]3C[C@@H]12 [Tetracycline]: 1
